Test system: cells, GFP-channel autofluorescence, high-content imaging
test.details: cell-permeable autofluorescent compounds in GFP channel, dose response, artefact control, imaging, high-content imaging (AID 2124)
Inconclusive results are not listed. Active and inactive are the calls of the source. How the calls were made is not given here; tested in MIN6 cells.
Respond using exactly one of the listed classes: active, inactive

| molecule | measurement.target | group |
| --- | --- | --- |
| COc1cccc2sc(NNC(=O)C3=COCCO3)nc12 | cells, GFP-channel autofluorescence, high-content imaging | active |
| Cc1ccc(NS(=O)(=O)c2cc([N+](=O)[O-])ccc2N/N=C/c2sc(N3CCOCC3)nc2-c2ccccc2)c(C)c1 | cells, GFP-channel autofluorescence, high-content imaging | active |
| C=CCN1C=CC(=CC=C(C#N)C#N)C=C1 | cells, GFP-channel autofluorescence, high-content imaging | active |
| Cc1cccn2c(=O)c(/C=C3\SC(=S)N(CC(C)C)C3=O)c(NCCCOC(C)C)nc12 | cells, GFP-channel autofluorescence, high-content imaging | inactive |
| Cc1cccn2c(=O)c(/C=C3\SC(=S)NC3=O)c(NCCCN3CCOCC3)nc12 | cells, GFP-channel autofluorescence, high-content imaging | active |

Query :: Status in this test for Cc1oc(C)c2c(=O)ccc3c(c12)OC(N)=C(C#N)C3c1ccc(F)cc1 (configuration not stated) ?
Result :: inactive

Query :: Status in this test for `Cc1ccnc(N/C=C(\C#N)c2nc(-c3cccc(Br)c3)cs2)c1` ?
Result :: active

Query :: Status in this test for `CCOC(=O)N1CCN(/C=C(\C#N)c2nc3ccccc3s2)CC1` ?
Result :: inactive

Query :: Status in this test for CCN1CC=C2C(C1)C(c1ccc(Cl)s1)C(C#N)=C(N)C2(C#N)C#N (configuration not stated) ?
Result :: inactive

Query :: Status in this test for `COc1ccc2c(n1)Sc1nc3ccccc3nc1N2` ?
Result :: active

Query :: Status in this test for `C/C(=N\Nc1ccc([N+](=O)[O-])cc1)c1cc2ccccc2o1` ?
Result :: active

---

test.details: cell-permeable autofluorescent compounds in GFP channel, dose response, artefact control, imaging, high-content imaging (AID 2124);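 on cell count: cells exposed to compound for 48 hours before fixing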
condition.notes: cells, GFP-channel autofluorescence, high-content imaging; cell count; at 10 µM
Inconclusive results are not listed.
Assignment: determine reported cell count for the given compounds.
Answers are plain numbers, in cells.

Worked cases, answers included:
| compound | assay.metric | measured |
| --- | --- | --- |
| c1ccc(-n2ncc3c(N4CCN(c5ccccn5)CC4)nc(N4CCCCCC4)nc32)cc1 | cell count | 3020 |
| COC(=O)Cc1c(C)nc2nc(NCc3ccccc3OC)[nH]n2c1=O | cell count | 3050 |
| O=C(/C=C/c1ccco1)NC(=S)Nc1ccccc1N1CCCC1 | cell count | 2690 |
| CN1CC=C2C(C#N)=C(N)C(C#N)(C#N)[C@H](c3cccc(Cl)c3)C2C1 (some centres not stated) | cell count | 2960 |
| CCCCn1c(SCC(=O)O)nc2ccccc21 | cell count | 2830 |
| Cc1nc(NC(=O)COC(=O)CCS(=O)(=O)c2ccccc2Cl)c(Cl)cc1Cl | cell count | 3210 |
| Cc1ccc(CNc2ccc3c(c2)OCO3)cc1 | cell count | 2720 |
| Nc1c(C(=O)C2CC2)sc2nc(-c3cccs3)cc(C(F)(F)F)c12 | cell count | 2750 |
| O=Nc1c(O)n(Cc2ccc(Cl)cc2)c2ccccc12 | cell count | 3420 |
| CCCCN1C(=O)C2(NNc3ccccc3O2)c2ccccc21 (configuration not stated) | cell count | 2820 |

// for each compound below, give its cell count
1. CCCCCOC(=O)C1=C(C)Nc2nnnn2C1c1ccc(OC)c(OC)c1OC (configuration not stated)
2. CC(C)(C)c1cc(C(=O)NCc2cccnc2)ccn1
3. CC(=Nc1ccc(C)cc1C)c1sc2ccccc2c1O
4. CC1=C/C(=C\C=C(C#N)C#N)N(C)c2ccccc21
5. CN1CCN(Cc2nc(N)nc(Nc3ccc4c(c3)OCCO4)n2)CC1
6. CCN(CC)c1ccc(/C=C/C(=O)c2ccc(Br)cc2)cc1

Result ::
1. 3580
2. 3450
3. 2760
4. 3120
5. 3330
6. 2880

// for each compound below, give its cell count
1. CC(=O)n1c(C=Nc2ccccc2)c(O)c2ccccc21
2. CC1=CN2C(=N)/C(=C/c3ccc([N+](=O)[O-])o3)C(=O)N=C2S1
3. Cc1cccc(NC(=O)/C=C/c2ccc([N+](=O)[O-])s2)c1
4. COc1cc(N2CCCC2)c(OC)cc1/C=C(/C#N)c1cccc(Br)c1
5. CCCNc1c(F)c(F)c2c(C)c3ccccc3nc2c1F

Result ::
1. 3060
2. 348
3. 244
4. 3340
5. 3140

Consider `COc1ccc(NC(=O)/C(C#N)=C\c2ccc(N3CCOCC3)o2)cc1` . Its measured cell count is 3270

---

test.details: cell-permeable autofluorescent compounds in GFP channel, dose response, artefact control, imaging, high-content imaging (AID 2124);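 on cell count: cells exposed to compound for 48 hours before fixing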
condition.notes: cells, GFP-channel autofluorescence, high-content imaging; cell count; at 10 µM
Records with an inconclusive call do not appear.
assay.metric: cell count

Worked cases, answers included:
| molecule | cell count |
| --- | --- |
| CCOC(=O)c1sc2cc([N+](=O)[O-])cc(SCC(C)C)c2c1N | 3070 cells |
| CCCn1c(SCC(=O)NC2CCCCC2)nnc1-c1ccncc1 | 2960 cells |
| CC1(C)c2ccccc2N2CC(=O)NC21/C=C/c1ccco1 (configuration not stated) | 2980 cells |
| CC(=O)c1cc(NC(=O)c2ccc(Cl)cc2)c(=O)oc1/C=C/N(C)C | 2840 cells |
| CC1CCCN(c2nc3c(c(=O)n(C)c(=O)n3C)n2CCSc2nc3ccccc3s2)C1 (configuration not stated) | 3180 cells |

// for each molecule below, give its cell count
1. CC(C)(C)C(=O)/C=c1\s/c(=C\c2ccc(-c3ccc([N+](=O)[O-])cc3)o2)c(=O)n1CC(=O)NC(N)=O
2. Cc1ccc(C)c(NC(=O)C(C)CC2COCCO2)c1 (configuration not stated)

Result ::
["3110 cells", "3230 cells"]

// for each molecule below, give its cell count
1. COc1cccc(C(=O)Nc2ccccc2C(=O)N2CCCC2)c1
2. CN(C)c1ccc(/C=C2\C(=N)N3C(=NC2=O)Sc2cc(S(C)(=O)=O)ccc23)cc1

Result ::
["3120 cells", "2790 cells"]

// for each molecule below, give its cell count
1. O=c1oc2cc(O)ccc2cc1-c1nc2c(s1)CCc1ccccc1-2
2. O=C(CNC(=O)c1ccco1)OCC(=O)c1ccccc1
3. O=C(NCCN1CCCC1)C1(S(=O)(=O)c2ccc(Cl)cc2)CC1

Result ::
["2720 cells", "3180 cells", "2860 cells"]

---

System: cells, GFP-channel autofluorescence, high-content imaging
test.details: cell-permeable autofluorescent compounds in GFP channel, dose response, artefact control, imaging, high-content imaging (AID 2124)
Records with an inconclusive call do not appear. Activity calls are given as the source filed them. How the calls were made is not given here; tested in MIN6 cells.
assay.metric: EC50

Worked cases, answers included:
| compound | EC50 |
| --- | --- |
| CN1/C(=C\C=C2/SC(=S)NC2=O)C(C)(C)c2ccccc21 | 6.13 µM |
| N#Cc1cccc(NC(=O)CSc2ccc3c4c(cccc24)C(=O)c2ccccc2-3)c1 | 4.73 µM |
| COc1ccc(C2C(C(C)=O)=C(C)N=c3s/c(=C\c4cc(C)n(C)c4C)c(=O)n32)c(OC)c1 (stereo unspecified) | 6.06 µM |

// for each compound below, give its EC50
1. CCCN1C(=O)S/C(=C\c2ccc(N3CCOCC3)o2)C1=O
2. Cc1nn(C)cc1N1C(=O)c2cccc3c(N)ccc(c23)C1=O

Result ::
1. > 16 µM (inactive)
2. > 16 µM (inactive)

---

Test system: cells, GFP-channel autofluorescence, high-content imaging
test.details: cell-permeable autofluorescent compounds in GFP channel, dose response, artefact control, imaging, high-content imaging (AID 2124)
Results filed as inconclusive are left out. Active and inactive are the calls of the source. The rule behind the calls is not given here; tested in MIN6 cells.
Respond using exactly one of the listed classes: active, inactive

Known results for molecules:
| molecule | measurement.target | group |
| --- | --- | --- |
| Cc1ccc(-c2cn3nc(-c4ccccc4)c(-c4ccccc4)nc3n2)cc1 | cells, GFP-channel autofluorescence, high-content imaging | active |
| COc1ccc(C(=O)c2sc3nc(-c4ccccc4)ccc3c2N)cc1OC | cells, GFP-channel autofluorescence, high-content imaging | active |
| COc1ccccc1N/C=C/c1onc(C)c1[N+](=O)[O-] | cells, GFP-channel autofluorescence, high-content imaging | active |
| Cc1oc(C)c2c(=O)ccc3c(c12)OC(N)=C(C#N)C3c1ccccc1Cl (stereo unspecified) | cells, GFP-channel autofluorescence, high-content imaging | inactive |
| O=[N+]([O-])c1ccc(N2N=C(c3ccco3)CC2c2ccccc2)cc1 (stereo unspecified) | cells, GFP-channel autofluorescence, high-content imaging | active |

Query :: Status in this test for CN1CC=C2C(C#N)=C(N)C(C#N)(C#N)[C@H](c3cccc(Cl)c3)C2C1 (stereo partly specified) ?
Result :: active

Query :: Status in this test for `Cc1ccc(/C(C#N)=C\c2ccc(N3CCOCC3)o2)cc1` ?
Result :: inactive

Query :: Status in this test for `CCN(CC)c1ccc(/C=C/C(=O)c2ccc(Br)cc2)cc1` ?
Result :: active

Query :: Status in this test for `O=C1c2cccc3c(O)ccc(c23)C(=O)N1Cc1ccccc1` ?
Result :: inactive

Query :: Status in this test for `CCCN1C(=O)/C(=C\C=C2\N(CC)c3ccccc3C2(C)C)SC1=S` ?
Result :: active

Query :: Status in this test for `COc1cc2c(cc1OC)C1=CC(=O)C(=O)N1C(C)(C)C2` ?
Result :: active
